Measured cell viability accompanies every entry in the list below.
System: OCI-AML2
Assay: cell viability relative to vehicle control; higher = less cytotoxic;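 note: after 48 h exposure read by CellTiter-Glo luminescence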
Conditions: 10 µM; SRSF2 genotype: P95H/wt
Numbers only here, please. The scale is %.

compound: O=C/C=C/c1ccccc1 [Cinnamaldehyde]
study target: OCI-AML2
quantity kind: cell viability
scale unit: %
test value: 102
--
compound: Nc1nc(N)nc(N)n1 [Melamine]
study target: OCI-AML2
quantity kind: cell viability
scale unit: %
test value: 95.2
--
compound: O=C(NCC1CCOCC1)c1cnc(Nc2ccc(Cl)cc2Cl)nc1C(F)(F)F
study target: OCI-AML2
quantity kind: cell viability
scale unit: %
test value: 98.5
--
compound: CC(=O)O[C@H]1C(=O)[C@@]2(C)[C@H]([C@H](OC(=O)c3ccccc3)[C@]3(O)C[C@H](O)C(C)=C1C3(C)C)[C@]1(OC(C)=O)CO[C@@H]1C[C@@H]2O
study target: OCI-AML2
quantity kind: cell viability
scale unit: %
test value: 104

Read off the recorded cell viability for COC(=O)C[C@](O)(CCC(C)(C)O)C(=O)O[C@@H]1C(OC)=C[C@]23CCCN2CCc2cc4c(cc2[C@H]13)OCO4 [Harringtonine]
5.78

Using the record for COCC1(CO)C(=O)C2CCN1CC2 (centres undefined) , state its measured cell viability.
14.8

Tell us which cell viability value is on record for O=C(O)CNC(=O)c1c(O)c2ccccc2n(Cc2ccccc2)c1=O
103

Answer with the recorded cell viability of C[C@H]1CC(=O)C[C@@H]2CC[C@H]3[C@@H]4CC[C@H](O)[C@@]4(C)CC[C@@H]3[C@]21C [Mesterolone] only.
75.6

Entry CC(C)c1ccc2c(c1O)CC[C@H]1C3=C(CC[C@]21C)C(=O)OC3 [Triptophenolide] needs its cell viability filled in; supply it.
49

---

Tested on: MOLM14
Assay: cell viability relative to vehicle control; higher = less cytotoxic
Conditions: 10 µM; SRSF2 genotype: SRSF2 wt/wt
quantity kind: cell viability (%)
Just the number in %, nothing appended.

Worked cases, cell viability given:
compound: CC1=C[C@H]2Cc3[nH]c(=O)ccc3[C@]3(C1)NCCC[C@H]23
cell viability, %: 108
//
compound: CC(=O)O[C@H]1CC[C@H]2[C@@H]3CCC4=CC(=O)CCC4=C3C=C[C@]12C [Trenbolone acetate]
cell viability, %: 102
//
compound: Cc1cc(SCc2sc(-c3ccc(C(F)(F)F)c(F)c3)nc2C)ccc1OCC(=O)O
cell viability, %: 103
//
compound: COc1cc(C(=O)O)cc(OC)c1OC
cell viability, %: 106

Consider now this further compound.
In one line, give reported cell viability of the entry O=C(O)c1nn(Cc2ccc(Cl)cc2Cl)c2ccccc12 .
95.6

---

Test system: MARIMO
Assay: cell viability relative to vehicle control; higher = less cytotoxic
Conditions: 10 µM; SRSF2 genotype: SRSF2 P95H/wt
cell viability: recorded values
Write it as a number; the unit % goes unstated.

Illustrative cases are given below, each with its answer.
compound: COc1cc2c(cc1OC)[C@@H](Cc1ccc(O)c(Oc3cc4c(cc3OC)CCN(C)[C@@H]4Cc3ccc(O)cc3)c1)N(C)CC2.[O-][Cl+3]([O-])([O-])O [Liensinine perchlorate]
scale unit: %
cell viability: 55.5

compound: C[C@]12CC[C@H](O)C[C@@H]1CC[C@@H]1[C@@H]2CC[C@]2(C)C(=O)CC[C@@H]12
scale unit: %
cell viability: 98.9

compound: CCCCCCC(=O)O[C@H]1CC[C@H]2[C@@H]3CCC4=CC(=O)CC[C@]4(C)[C@H]3CC[C@]12C [Testosterone Enanthate]
scale unit: %
cell viability: 66.5

Identify the reported cell viability for the following entry. C=C[C@@]12CN(C)[C@H]3C[C@]14C(=Nc1ccccc14)[C@@H]1C[C@@H]2[C@@H]3CO1 [Koumine]
102

src = the supplement of paper PMC10981050
